Catalogue of melting point values

Examples with answers:
{"Molecule Smiles": "Cc1nc2c(c(N(C)c3ccccc3)n1)CCCC2", "melting point": "84 to 85 °C"}
{"Molecule Smiles": "COc1ccc2c(c1)CCCN2c1nc(C)nc2c1CCCCC2", "melting point": "122 to 123 °C"}

Proceed to the following item.
I'd like to know its melting point. The compound in question is Cc1nc2c(c(N3CCCc4ccc([N+](=O)[O-])cc43)n1)CCCC2 184 to 185 °C

---

- Test system: immortalized lung fibroblast cell line VA13 (WI38 subline 2RA)
- Protocol Summary: MTT cytotoxicity assay, VA13
- Type: cell-based
- Assay Conditions: Homo sapiens, VA-13, 64 h, read-out: IC50, nM VA13
Measurement Label: IC50 (nM)
Respond numerically; units are nM and should not be typed.

Entry COc1ccc(N(C)c2nc(C)nc3ccccc23)cc1 [Compound 1, Verubulin] has what IC50? 0.84

---

- Test system: human breast cancer cell line MCF7′
- Protocol Summary: MTT cytotoxicity assay, MCF7′
- Type: cell-based
- Assay Conditions: MCF7, 64 h treatment, MTT, read-out: IC50, nM MCF7′
Measurement Label: IC50 (nM)
Numbers only; they are read as nM.

These solved cases illustrate the format of a correct answer.
{"Molecule Smiles": "Cc1nc2c(c(N3CCCc4ccccc43)n1)CCCC2", "Measurement Label": "IC50", "Units Label": "nM", "Result": 9100}
{"Molecule Smiles": "COc1ccc(N(C)c2nc(C)nc3c2CCCCC3)cc1", "Measurement Label": "IC50", "Units Label": "nM", "Result": 53}
{"Molecule Smiles": "COc1ccc2c(c1)CCCN2c1nc2c(c(N3CCCc4cc(OC)ccc43)n1)CCCC2", "Measurement Label": "IC50", "Units Label": "nM", "Result": 660}
{"Molecule Smiles": "COc1ccc2c(c1)CCCN2c1nc(N)nc2c1CCCC2", "Measurement Label": "IC50", "Units Label": "nM", "Result": 40.2}
{"Molecule Smiles": "Cc1nc2c(c(N(C)c3ccccc3)n1)CCCC2", "Measurement Label": "IC50", "Units Label": "nM", "Result": 1840}
{"Molecule Smiles": "COc1ccc2c(c1)CCCN2c1nc(OC(C)C)nc2c1CCCC2", "Measurement Label": "IC50", "Units Label": "nM", "Result": 310}

What value of IC50 on human breast cancer cell line MCF7′ does COc1ccc(N(C)c2nc3c(c(N(C)c4ccc(OC)cc4)n2)CCCC3)cc1 have? 2500

Give recorded IC50 with human breast cancer cell line MCF7′ for the following compound: COc1ccc(N(C)c2nc(C)nc3c2CCCC3)cc1 3.6

For the record COc1ccc2c(c1)CCCN2c1nc(C)nc2c1CCCCC2 , what value of IC50 is listed for human breast cancer cell line MCF7′? 360

Identify the measured IC50 of CN(c1ccccc1)c1nc(N)nc2c1CCCC2 for human breast cancer cell line MCF7′. 28600

Value wanted: IC50 (human breast cancer cell line MCF7′) of entry COc1ccc(N(C)c2nc(Cl)nc3c2CCCC3)cc1 3.3

Recorded IC50 for COc1ccc2c(c1)CCCN2c1nc2c(c(OC(C)C)n1)CCCC2 with human breast cancer cell line MCF7′, please? 24200

Could you share what IC50 was measured for COc1ccc2c(c1)CCCN2c1nc(C)nc2c1CCCC2 , tested on human breast cancer cell line MCF7′? 12.6

Missing value: IC50, human breast cancer cell line MCF7′, entry Cc1ccc(N(C)c2nc(C)nc3c2CCCC3)cc1 . Fill in? 97

Can you look up IC50 on human breast cancer cell line MCF7′ for Cc1ccc(N(C)c2nc(N)nc3c2CCCC3)cc1 ? 210

Can you look up IC50 on human breast cancer cell line MCF7′ for COc1ccc(N(C)c2nc(N)nc3c2CCCC3)cc1 ? 10.2

---

- Tested on: HCT116 cell line
- Protocol Summary: MTT cytotoxicity towards HCT116
- Type: cell-based, human
- Assay Conditions: Homo sapiens, HCT-116
Measurement Label: IC50 (nM)
Kindly provide the numeric value in nM only, without the unit symbol.

Would you kindly share the measured IC50 for COc1ccc(N(C)c2nc(C)nc3ccccc23)cc1 ? 3.2
